# Tested on: MALME-3M melanoma
# ASSAY SUMMARY: NCI tumour cell line growth inhibition, 48 h; in the data active = GI50 below about 0.43 µM; inactive = the rest
Permitted responses: Yes (active), No (inactive)

Below, 3 compounds whose answers are already recorded.
COMPOUND	LABEL VALUE
O=C(O)C1[O][Sb][O]C(C(=O)O)C1O (stereo not drawn)	No
COC(=O)c1cc2c3ccccc3n3c2c(n1)-c1[nH]c2ccccc2c(=O)c1C3	No
Cc1cc(Nc2cc(N3CCN(C)CC3)nc(/C=C/c3ccccc3)n2)n[nH]1	No

Then there is this compound:
query: // return assay outcome for CO[C@H]1CC(O[C@@H]2/C(C)=C/C[C@@H]3C[C@@H](C[C@]4(CC[C@H](C)[C@@H](C5CCCCC5)O4)O3)OC(=O)[C@@H]3C=C(C)/C(=N/O)[C@H]4OC/C(=C\C=C\[C@@H]2C)[C@]43O)O[C@@H](C)C1O (stereo partly drawn)
result: No
